Assayed target: Alpha-1B adrenergic receptor (Homo sapiens, UniProt P35368)
Sequence (P35368 whole entry): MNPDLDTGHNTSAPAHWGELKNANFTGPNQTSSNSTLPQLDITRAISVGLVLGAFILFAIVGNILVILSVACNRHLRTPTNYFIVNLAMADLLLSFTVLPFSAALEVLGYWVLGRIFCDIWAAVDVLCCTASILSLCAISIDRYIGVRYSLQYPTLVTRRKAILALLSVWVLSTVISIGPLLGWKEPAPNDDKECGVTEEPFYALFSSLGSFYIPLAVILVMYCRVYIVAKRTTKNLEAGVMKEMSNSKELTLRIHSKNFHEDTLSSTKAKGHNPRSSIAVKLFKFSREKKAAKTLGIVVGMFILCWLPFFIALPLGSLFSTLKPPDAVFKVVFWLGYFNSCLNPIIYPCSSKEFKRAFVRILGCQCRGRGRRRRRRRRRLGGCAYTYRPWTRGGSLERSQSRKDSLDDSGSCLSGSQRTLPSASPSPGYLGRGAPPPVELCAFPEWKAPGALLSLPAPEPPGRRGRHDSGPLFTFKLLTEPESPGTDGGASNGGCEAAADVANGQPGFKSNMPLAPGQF
pKi: −log10 of the molar value.
Result type: pKi

1: CCOc1ccccc1OCCN[C@H](C)Cc1ccc(OC)c(S(N)(=O)=O)c1 [TAMSULOSIN]
2: CC(C)Oc1ccccc1N1CCN(CCCNC(=O)c2ccc3c(c2)C(=O)N(c2ccc(O)cc2)C3=O)CC1
Hi, I'm comparing two records. Which one has the lower pKi, 1 or 2 ? Give the label of your selection. 2
(2: 6.59, 1: 8.72)

====

Assayed target: Alpha-2C adrenergic receptor (Homo sapiens)
Sequence (whole entry): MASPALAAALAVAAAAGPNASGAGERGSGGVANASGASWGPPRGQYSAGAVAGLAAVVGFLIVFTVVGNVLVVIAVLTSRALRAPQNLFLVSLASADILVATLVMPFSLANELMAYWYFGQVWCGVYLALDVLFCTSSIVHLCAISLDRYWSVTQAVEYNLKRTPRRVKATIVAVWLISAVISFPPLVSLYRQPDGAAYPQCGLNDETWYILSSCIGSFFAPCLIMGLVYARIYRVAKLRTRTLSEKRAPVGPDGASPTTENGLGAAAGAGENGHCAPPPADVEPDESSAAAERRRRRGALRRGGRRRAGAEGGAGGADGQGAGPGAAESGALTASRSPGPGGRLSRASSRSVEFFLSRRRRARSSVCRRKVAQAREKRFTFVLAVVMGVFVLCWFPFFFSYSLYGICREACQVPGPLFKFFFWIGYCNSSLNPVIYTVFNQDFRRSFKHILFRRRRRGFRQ
Run description: Compound at 1 uM was tested for the inhibition of radioligand [3H]MK-912 binding to recombinant human alpha-2C adrenergic receptor
Result type: inhibition (%)

Some molecules with recorded inhibition:
Smiles representation | inhibition, %
COc1ccc(N2C(=O)c3ccc(C(=O)NCCCN4CCN(c5ccccc5OC(C)C)CC4)cc3C2=O)cc1 | 76
CC(C)Oc1ccccc1N1CCN(C[C@@H](O)CNC(=O)c2ccc3c(c2)C(=O)N(c2ccc(N(C)C)cc2)C3=O)CC1 | 11

P: CCOc1ccccc1OCCN[C@H](C)Cc1ccc(OC)c(S(N)(=O)=O)c1
Q: Cc1ccc(N2C(=O)c3ccc(C(=O)NCCCN4CCN(c5ccccc5OC(C)C)CC4)cc3C2=O)cc1
R: Cc1ccc(N2C(=O)c3ccc(C(=O)NC[C@H](O)CN4CCN(c5ccccc5OC(C)C)CC4)cc3C2=O)cc1
S: CC(C)Oc1ccccc1N1CCN(C[C@@H](O)CNC(=O)c2ccc3c(c2)C(=O)N(c2cccc(F)c2)C3=O)CC1
Please produce an ascending ranking of these molecules based on inhibition. Quick reminder: the answer is the labels in the order asked. S, R, P, Q

Reference for the values: ChEMBL document CHEMBL1133729
